# System: A549
# Assay Name: NCI tumour cell line growth inhibition, 48 h
Calls of active or inactive are those of the source. Rule as the data show it: active = GI50 up to about 1.1 µM and inactive = higher.
Observable: GI50

{"Molecule": "COc1ccc(/N=N/C(=N\\c2ccc(Cl)cc2)c2ccc(N(CCC#N)CCC#N)cc2)cc1", "GI50": "47.6 µM (inactive)"}
{"Molecule": "Cc1c(C(=O)c2ccccc2C(=O)O)c2ccccc2n1C", "GI50": "> 100 µM (inactive)"}
{"Molecule": "O=c1c2ncn(C3CC(O)C(CO)O3)c2nnn1Cc1ccccc1[N+](=O)[O-] (stereo not given)", "GI50": "> 100 µM (inactive)"}
{"Molecule": "COc1cc2c(/C=C3/C(=O)Nc4ccc(O)cc43)c(Cl)[nH]c2cc1C", "GI50": "0.397 µM (active)"}
{"Molecule": "CCOc1cc(-c2nc3ccccn3c2/N=C/c2cc(Br)ccc2O)ccc1O", "GI50": "37.9 µM (inactive)"}

Recorded GI50 for C[N+](C)(C)CC1CCCC1=O (stereo not given) , please?
19 µM (inactive)

Value lookup for GI50; key = O=C1CC2(C[C@@H]3CCCCCCCCC[C@@H](C3)C2)N1 (stereo not given in full)
21.8 µM (inactive)

Please report the recorded GI50 for Cc1cn(C2CC(O)C(CO[Si](C)(C)C(C)(C)C)OC2OC(C)C)c(=O)[nH]c1=O (stereo not given) .
34.1 µM (inactive)

For the molecule shown here, Cn1c2ccccc2c(=NNc2ccc(C(=O)O)cc2)c2ccccc21 , give the reported GI50.
14.4 µM (inactive)

What does the record list as GI50 for CC(C)N(C(=O)C12C3C4C1C1C4(C#N)C3C12C(=O)O)C(C)C (stereo not given) ?
97.9 µM (inactive)

====

# Test system: MDA-MB-435
# Assay Name: NCI tumour cell line growth inhibition, 48 h
The source made the active and inactive calls. Cut-off read from the data, not from the text of the source: active = GI50 up to about 1.1 µM and inactive = higher.
Each item that follows carries a reported GI50.

Completed entries (count: 2):
{"Molecule": "CN(C)CCCn1c(Cc2ccccc2)nc2cc(C(F)(F)F)ccc21", "GI50": "15.9 µM (inactive)"}
{"Molecule": "Cn1c(=O)c2[nH]c(N/N=C3/SCC(=O)N3Cc3ccccc3)nc2n(C)c1=O", "GI50": "19.1 µM (inactive)"}

Given O=C1CSC(c2ccc(Cl)cc2)N1c1ccc(-n2c(-c3ccccc3)nc3ccccc3c2=O)cc1 (stereo not given) , state its recorded GI50.
56 µM (inactive)

Which GI50 reading was recorded for the molecule CC(=O)c1cccc(Nc2nc3ccccc3c3[nH]c4ccccc4c23)c1 ?
4.48 µM (inactive)

====

# Test system: CCRF-CEM
# Assay Name: NCI tumour cell line growth inhibition, 48 h
Active and inactive are the calls of the source. No stated cut-off is given here; in the data, active = GI50 up to about 1.1 µM and inactive = higher.
Observable: GI50

Study these solved cases before continuing.
{"Compound": "Cc1ccc(CC(=O)Nc2ccc(NC(=O)CNC(=O)/C=C/c3ccc(-c4ccccc4)cc3)cc2C(=O)c2ccccc2)cc1", "Target System": "CCRF-CEM", "GI50": "4.79 µM (inactive)"}
{"Compound": "CC(=O)OC1CCN(C(=O)c2ccccc2)CC1CC1(c2cc3ccccc3[nH]2)OCCO1 (stereo not drawn)", "Target System": "CCRF-CEM", "GI50": "48.3 µM (inactive)"}
{"Compound": "CCOP(=O)(/C=C/n1ccc(N)nc1=O)OCC", "Target System": "CCRF-CEM", "GI50": "> 100 µM (inactive)"}

Turning now to a further record.
Value lookup for GI50; key = Cn1c(=O)c2[nH]c(N/N=C3/SCC(=O)N3Cc3ccccc3)nc2n(C)c1=O
22.1 µM (inactive)

====

GI50 overview
# Tested on: T47D
# Assay Name: NCI tumour cell line growth inhibition, 48 h
Calls of active or inactive are those of the source. Rule as the data show it: active = GI50 up to about 1.1 µM and inactive = higher.

{"Molecule": "COC(=O)[C@H](COC(=O)/C=C/c1ccc(OC(C)=O)c(OC(C)=O)c1)NC(=O)/C=C/c1ccc(OC(C)=O)c(OC(C)=O)c1", "GI50": "2.81 µM (inactive)"}
{"Molecule": "O=C1OC2C(O)COC2(O)C1(O)C(C[N+](=O)[O-])c1ccc(Cl)cc1 (centres undefined)", "GI50": "13.8 µM (inactive)"}
{"Molecule": "C=C1C[C@@H]2O[C@H]3[C@H]4[C@@H](C[C@@H](C)[C@@H](OC(C)=O)[C@H]42)[C@@H](C)CO[C@@]3(C)[C@H](OC(=O)CCCCCCC)CC1=O", "GI50": "15.4 µM (inactive)"}

Return reported GI50; argument: Cc1cc(=O)oc2cc(OCC(O)COC(C)C)ccc12 (centres undefined)
> 100 µM (inactive)

====

# System: HOP-92
# Assay Name: NCI tumour cell line growth inhibition, 48 h
Calls of active or inactive are those of the source. Cut-off read from the data, not from the text of the source: active = GI50 up to about 1.1 µM and inactive = higher.
Observable: GI50

Check out these entries, answers already filled in.
{"Compound": "COc1ccc(OC)c(NC(=O)C2=C(C)NC(C)=C(C(=O)Nc3cc(OC)ccc3OC)C2c2ccco2)c1", "GI50": "> 100 µM (inactive)"}
{"Compound": "Cc1ccc(/C=C2/N/C(=N\\N=C/C(O)C(O)C(O)CO)NC2=O)cc1 (centres undefined)", "GI50": "> 100 µM (inactive)"}
{"Compound": "Cc1nn(-c2ccccn2)c2c1C(SC#N)=C(C=O)CC2", "GI50": "16.5 µM (inactive)"}
{"Compound": "O=C(c1cc(Cl)ccc1Cl)N1CCN(c2cccc(Cl)c2)CC1", "GI50": "> 10 µM (inactive)"}
{"Compound": "Cc1ccc2nc(NC(=O)C(=O)CC(=O)c3cccc4ccccc34)sc2c1", "GI50": "14.8 µM (inactive)"}

Which value of GI50 has been reported for CC(=O)NC1C(OCc2ccccc2)OC(CO)C(O)C1OCC(=O)NC(C)C(=O)NC(CCC(=O)NCCCCCC(=O)Nc1ccc2c(c1)CN1C(=O)c3ccccc3C1=N2)C(N)=O (centres undefined) in the records?
25.3 µM (inactive)

Field request: GI50 | item: COc1ccccc1N1C(=O)CSC1c1cc(OC)c(OC)c(OC)c1 (centres undefined)
50.9 µM (inactive)

Quick one: GI50 of CC(=O)Nc1ccc(C(=O)NN2C(=O)C(Cl)C2c2ccc([N+](=O)[O-])cc2)cc1 (centres undefined) ?
> 100 µM (inactive)

Sample CCOC(=O)c1sc2c(c1OC(=O)c1ccc(Cl)cc1Cl)c(=O)n(-c1ccccc1)c(=S)n2-c1ccccc1 — what was its GI50?
3.49 µM (inactive)

====

The molecules listed here are annotated with their GI50.
# System: RPMI-8226
# Assay Name: NCI tumour cell line growth inhibition, 48 h
Calls of active or inactive are those of the source. Cut-off read from the data, not from the text of the source: active = GI50 up to about 1.1 µM and inactive = higher.

Before answering, review these 5 worked examples.
{"Molecule": "C[C@H]1[C@H](C)CC[C@]2(C(=O)O)CCC3(COC(=O)/C=C/c4ccc(O)cc4)C(=CCC4[C@@]5(C)CC[C@H](O)C(C)(C)C5CC[C@]43C)[C@H]12 (some centres undefined)", "GI50": "5.05 µM (inactive)"}
{"Molecule": "COC(=O)c1ccc(/C=N/c2ccc(S(N)(=O)=O)cc2)cc1", "GI50": "30.9 µM (inactive)"}
{"Molecule": "COC(=O)[C@H](COC(=O)/C=C/c1ccc(OC(C)=O)c(OC(C)=O)c1)NC(=O)/C=C/c1ccc(OC(C)=O)c(OC(C)=O)c1", "GI50": "> 100 µM (inactive)"}
{"Molecule": "COc1cc(/C=C/C(=O)CC(=O)/C=C/c2cc(C)c(O)c(OC)c2)cc(C)c1O", "GI50": "37.6 µM (inactive)"}
{"Molecule": "O=C1C2=Cc3ccccc3CCN2c2ccc([N+](=O)[O-])cc21", "GI50": "> 100 µM (inactive)"}

Which GI50 reading was recorded for the molecule Cc1c(N2CCOCC2)nc2ccc(Cl)cc2c1-c1ccccc1 ?
46.9 µM (inactive)

Report GI50 for O=C(Nc1ccc(Cl)cc1)[C-](C(=O)c1ccc(Br)cc1)[n+]1cccc(-c2ccc(Cl)cc2)n1 please.
3.81 µM (inactive)

Quick check: GI50 of Nc1nc(Cl)cc(NCC2(CO)CC(CCCCc3ccccc3)C2)n1 (centres undefined) ?
10.9 µM (inactive)

Value lookup for GI50; key = O=C(CSCC(=O)N/N=C\c1ccc(F)cc1F)N/N=C\c1ccc(F)cc1F
> 100 µM (inactive)

====

Here, each record is paired with measured GI50 data.
# Test system: DMS-273
# Assay Name: NCI tumour cell line growth inhibition, 48 h
Calls of active or inactive are those of the source. Cut-off read from the data, not from the text of the source: active = GI50 up to about 1.1 µM and inactive = higher.

{"Compound": "COc1ccc(OC)c(/C=C2\\CCc3ccccc3C2=O)c1", "Assay Value": "1.12 µM (active)"}
{"Compound": "Cc1ccc(S(=O)(=O)ON/N=C2/C3OC3[C@@H]3CCCC[C@H]23)cc1 (some centres undefined)", "Assay Value": "> 100 µM (inactive)"}
{"Compound": "[O-][S+]1c2ccccc2N=C(c2ccc3ccccc3c2)CC1c1ccccc1 (centres undefined)", "Assay Value": "38.6 µM (inactive)"}

Now for the compound whose GI50 we want.
Recorded GI50 for CC(N)C(=O)c1ccc(O)cc1 (centres undefined) , please?
> 100 µM (inactive)
